TEST SUMMARY: in vivo
PROPERTY: bioavailability (%)
Report the figure in % without appending any unit label.

Reported bioavailability ( O=C(c1ccc(OCCN2CCCCC2)cc1)c1c(-c2ccc(O)cc2)sc2cc(O)ccc12 [RALOXIFENE] ) = 2

###

TESTED SYSTEM: Estrogen receptor (Homo sapiens)
Sequence (P03372 whole entry): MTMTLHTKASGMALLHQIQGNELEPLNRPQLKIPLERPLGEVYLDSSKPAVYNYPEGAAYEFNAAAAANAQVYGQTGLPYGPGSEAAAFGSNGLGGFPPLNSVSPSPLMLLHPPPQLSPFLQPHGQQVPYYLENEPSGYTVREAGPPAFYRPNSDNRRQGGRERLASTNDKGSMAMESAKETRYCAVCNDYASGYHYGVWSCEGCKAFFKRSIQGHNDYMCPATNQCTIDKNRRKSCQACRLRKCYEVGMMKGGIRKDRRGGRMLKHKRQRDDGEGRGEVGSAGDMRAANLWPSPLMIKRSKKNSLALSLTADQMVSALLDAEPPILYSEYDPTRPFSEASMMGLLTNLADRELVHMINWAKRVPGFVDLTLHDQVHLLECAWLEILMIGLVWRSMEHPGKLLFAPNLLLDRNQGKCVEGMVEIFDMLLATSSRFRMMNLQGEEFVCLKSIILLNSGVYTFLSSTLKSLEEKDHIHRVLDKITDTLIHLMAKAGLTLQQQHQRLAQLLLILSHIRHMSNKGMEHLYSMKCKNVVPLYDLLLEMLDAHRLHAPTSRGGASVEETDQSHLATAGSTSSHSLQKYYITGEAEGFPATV
PROPERTY: Ki (pM)
Report the figure in pM without appending any unit label.

Item "Oc1ccc2c(c1)CN(c1ccc(OCCN3CCCCC3)cc1)c1c-2ccc2cc(O)ccc12" ; assay system Estrogen receptor (Homo sapiens); Ki reported as 280
